The measurements presented in this section are drawn from paper PMC6162346.

- study_target: MDM2 (Homo sapiens)
- Sequence (Q00987 whole entry): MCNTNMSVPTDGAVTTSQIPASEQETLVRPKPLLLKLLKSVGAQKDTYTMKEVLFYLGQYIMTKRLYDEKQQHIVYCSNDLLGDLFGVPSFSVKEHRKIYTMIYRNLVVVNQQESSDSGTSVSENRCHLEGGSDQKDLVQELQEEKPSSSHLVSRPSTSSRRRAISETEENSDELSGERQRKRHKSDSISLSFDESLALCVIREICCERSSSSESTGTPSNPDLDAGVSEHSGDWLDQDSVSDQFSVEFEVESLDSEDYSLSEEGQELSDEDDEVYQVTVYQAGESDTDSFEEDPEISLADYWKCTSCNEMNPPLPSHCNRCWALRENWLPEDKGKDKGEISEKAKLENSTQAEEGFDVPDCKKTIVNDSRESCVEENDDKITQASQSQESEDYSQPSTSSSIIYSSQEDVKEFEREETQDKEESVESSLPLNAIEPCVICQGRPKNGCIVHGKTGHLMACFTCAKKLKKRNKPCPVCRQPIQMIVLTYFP
- test_protocol: MALDI-TOF E2/E3 ligase assay (mono-ubiquitin consumption), UBE1/UBE2D1/MDM2
- Assay type: biochemical
- run_parameters: UBE1/UBE2D1/MDM2; compounds pre-incubated 30 min, then ubiquitin 30 or 40 min; four-parameter fit; read-out: IC50 against MDM2
Item-by-item account of IC50
Answer with a number only, understood to be in nM.

Some solved cases for reference:
molecule: Cc1ccc(S(=O)(=O)/C=C/C#N)cc1
IC50 / nM: 2400
//
molecule: CCOC(=O)c1ccc(N2NC(=O)/C(=C/c3ccc([N+](=O)[O-])o3)C2=O)cc1
IC50 / nM: 3100

Ask | Looking for the measured IC50 of CCOc1nc2cccc(C(=O)OC(C)OC(=O)OC3CCCCC3)c2n1Cc1ccc(-c2ccccc2-c2nnn[nH]2)cc1 (stereo not shown) , can you help?
Reply | 8800

Ask | Given the molecule "N#CSc1cc(SC#N)c(N)nc1N" , what is its reported IC50?
Reply | 600
